Attribution: patent US20240287188A1

system-name: T1, ICAM-1 protein antigen (R&D System) (human, UniProt P05362 28-480)
T1 construct: The assay paragraphs say only 'ICAM-1 (R&D System)'; also called antigen ICAM-1; ICAM-1 antigen
T1 sequence (P05362 28-480 limits assumed): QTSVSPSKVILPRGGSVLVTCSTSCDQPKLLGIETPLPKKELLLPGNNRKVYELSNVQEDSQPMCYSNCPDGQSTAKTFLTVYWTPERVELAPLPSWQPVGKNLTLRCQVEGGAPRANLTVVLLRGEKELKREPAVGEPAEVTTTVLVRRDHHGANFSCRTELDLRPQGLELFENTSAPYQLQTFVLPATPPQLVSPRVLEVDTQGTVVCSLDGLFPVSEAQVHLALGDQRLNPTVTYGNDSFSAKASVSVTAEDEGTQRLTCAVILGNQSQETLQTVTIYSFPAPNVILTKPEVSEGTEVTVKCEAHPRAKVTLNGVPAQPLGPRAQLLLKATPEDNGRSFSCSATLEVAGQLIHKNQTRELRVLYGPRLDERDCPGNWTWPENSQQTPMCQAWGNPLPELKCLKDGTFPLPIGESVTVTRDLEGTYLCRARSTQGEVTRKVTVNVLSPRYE
method-summary: ELISA, ICAM-1 coated 100 ng/well, anti-human Ig-HRP
quantity: OD 450 nm at 10 ng/ml antibody

Examples with their reported OD 450 nm at 10 ng/ml antibody follow.
chimeric anti-ICAM-1 antibody SI9 (mouse SI9 variable regions, human IgG4/kappa constant regions) (antibody, the hinge lies in the heavy chain; also called chimeric antibody SI9; SI9 Chimeric; not shown: human IgG4 heavy chain constant region, GenBank AIC59040.1 (printed), hinge 'CPSCP' modified to 'CPPCP' (position not pr); human kappa light chain constant region, GenBank AAA58989.1 (printed)) heavy: QVQLQQSGAELVRPGVSVKISCKGSGYTFTDYALHWVKQSHAKSLEWIGVISTYSGNTDYNQKFRGKATMTVDKSSTTAYLELARLTSEDSAIHYCARSLYFGSSGFDYWGQGTALTVSS light: DVVLTQTPLSLPVNLGDQASISCRSSQTLVYRNGNTYLHWYLQKAGQSPKLLIYKVSNRFSGVPDRFSGSGSGTDFTLKISRVEAEDLGVYFCSQNTHFPYTFGGGTKIKR
0.298 OD (450 nm)
humanized anti-ICAM-1 antibody H17L3 (VH17 + VL3), human IgG4/kappa (antibody, V domains shown, The Arg at the VL/CL junction is in neither entry) VH: QVQLVQSGAEVKKPGASVKISCKGSGYTFTDYALHWVRQAPGQRLEWMGVISTYSGNTDYNQKFRGRATITVDTSASTAYMELSSLRSEDTAVYYCARSLYFGSSGFDYWGQGTALTVSS VL: DVVLTQTPLSSPVTLGQPASISCRSSQTLVYRNGNTYLHWYLQRAGQPPRLLIYKVSNRFSGVPDRFSGSGAGTDFTLKISRVEAEDVGVYFCSQNTHFPYTFGGGTKLEIKT
0.344 OD (450 nm)

Attention now turns to another entry.
Problem: Look up OD 450 nm at 10 ng/ml antibody: humanized anti-ICAM-1 antibody H17L4 (VH17 + VL4), human IgG4/kappa (antibody, V domains shown, The Arg at the VL/CL junction is in neither entry; also called DNP007; DNP007 antibody (H17L4 antibody)) VH: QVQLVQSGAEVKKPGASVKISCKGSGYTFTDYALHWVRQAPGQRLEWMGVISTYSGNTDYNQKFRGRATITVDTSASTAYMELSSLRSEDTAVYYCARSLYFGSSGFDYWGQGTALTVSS VL: DVVLTQTPLSSPVTLGQPASISCRSSQTLVYRNGNTYLHWYQQRPGQPPRLLIYKVSNRFSGVPDRFSGSGAGTDFTLKISRVEAEDVGVYFCSQNTHFPYTFGGGTKLEIKT
Solution: 0.349 OD (450 nm)
